system: Pontederia vaginalis; experiment: Post-emergence herbicidal activity against Monochoria vaginalis assessed as bleaching of stem/leaf parts; assay type: functional, organism-based; also: test concentration or dose not given here
The source made the active and inactive calls. No rule for the calls is given here.
experimentalReadout: Activity

Illustrative cases are given below, each with its answer.
Qu. Recorded Activity of `CCCN(OCC)C(=O)c1cn(C)nc1OCc1cccc(C(F)(F)F)c1` , please.
Ans. Active

Qu. Field entry: `Cn1cc(C(=O)Nc2ccc(Cl)cc2Cl)c(OCc2cccc(C(F)(F)F)c2)n1`
Ans. Active

Qu. Field entry: `CCCN(CC)C(=O)c1cn(C)nc1OCc1ccccc1`
Ans. Active

Qu. Field entry: `Cn1cc(C(=O)NOc2ccccc2Cl)c(OCc2cccc(C(F)(F)F)c2)n1`
Ans. Active

Qu. Field entry: `Cn1cc(C(=O)Nc2cccc(Cl)c2)c(OCc2cccc(C(F)(F)F)c2)n1`
Ans. Active

Provide Activity values for the following items, in order.
1. Cn1cc(C(=O)NOc2ccc(C(C)(C)C)cc2)c(OCc2cccc(C(F)(F)F)c2)n1
2. Cn1cc(C(=O)Nc2ccc(C(F)(F)F)cc2)c(OCc2cccc(C(F)(F)F)c2)n1
3. Cn1cc(C(=O)NOc2ccc(C(F)(F)F)cc2)c(OCc2cccc(C(F)(F)F)c2)n1
4. Cn1cc(C(=O)Nc2ccc(C(C)(C)C)cc2)c(OCc2cccc(C(F)(F)F)c2)n1

Ans.
Active
Active
Active
Active

Qu. Recorded Activity of `CCCN(CC)C(=O)c1cn(C)nc1OCc1cc(F)cc(F)c1` , please.
Ans. Active

Each recorded value in this set is attributed to ChEMBL document CHEMBL3046635.
